molecular target: T1, human FGFR4 protein (Sino Biological, Cat. No. 10538-H08H) (human, UniProt P22455 22-369); test: ELISA, FGFR4 coated
T1 construct: Bought recombinant protein; construct not described
Result Type: binding result

antibody A1B2 (murine chimeric anti-FGFR2 antibody) (antibody, human IgG1, kappa, V domains shown) VH: EVQLQQSGAELVRPGASVKLSCTASGFNIKDYYMHWVKQRPEQGLEWIGRIDPEDGDTEYAPKFQGKATMTADTSSNTAYLQLSSLTSEDTAVYYCTTYYYVSTYEDYWGQGTTLTVSS VL: QIVLTQSPAIMSASLGEEITLTCSASSSVSHMHWYQQKSGTSPKLLIYSTSNLASGVPSRFSGSGSGTFYSLTISSVEAEDAADYYCHHWSSWTFGGGTKLEIKR = no binding
antibody G11B8 (murine chimeric anti-FGFR2 antibody) (antibody, human IgG1, kappa, V domains shown) VH: EVQLQQSGPELVKPGASVKIPCKASGYTFTDYNMDWVKQSHGKSLEWIGDINPKNGETFYNQKFKGKATLTVDRSSNTAYMELRSLTSEDTAVYFCAKRDLNWYFDYWGQGTTLTVSS VL: DIQMTQSSSYLSVSLGGRVTITCKASDHINNWLAWYQQKPGNAPRLLISGATSLETGVPSRFSGSGSGKDYTLSITSLQTEDVATYYCQQYWSTPWTFGGGTKLEIKR = no binding
antibody D12D8 (murine chimeric anti-FGFR2 antibody) (antibody, human IgG1, kappa, V domains shown) VH: QVQLQQSGAELARPGASVKLSCKASGYTFTNYGISWVKQRTGQGLEWIGEIYPRSGNTYYNEKFKGKATLTADKSSSTAYMELRSLTSEDSAVYFCARGDYSNSDYWGQGTTLTVSS VL: DIQMTQTTSSLSASLGDRVTISCRASQDITDHLNWYQQKPDGTVKLLIYYTSRLHSGVPSRFSGSGSGTDYSLTISNLEQEDIATYFCQQGNTLPRTFGGGTKLEIKR = no binding
